Recorded IC50, one value per entry.
Biological target: PTP BETA (Homo sapiens)
Construct: The catalytic domain was amplified using the following oligonucleotides; made in house; host or cells: E. coli BL-21 (pGEX 6P-1)
Sequence (P23467 1653-1997): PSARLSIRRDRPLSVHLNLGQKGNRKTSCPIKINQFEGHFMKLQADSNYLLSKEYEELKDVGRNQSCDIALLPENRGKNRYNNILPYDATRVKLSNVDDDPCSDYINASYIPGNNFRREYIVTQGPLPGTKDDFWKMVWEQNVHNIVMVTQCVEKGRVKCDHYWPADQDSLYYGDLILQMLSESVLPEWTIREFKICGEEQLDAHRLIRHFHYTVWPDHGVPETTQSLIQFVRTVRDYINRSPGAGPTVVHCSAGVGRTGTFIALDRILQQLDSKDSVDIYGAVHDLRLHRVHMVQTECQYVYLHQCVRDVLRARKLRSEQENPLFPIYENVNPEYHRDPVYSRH
Experiment: PTP IC50 assay, pNPP or FDP as substrate
Assay type: biochemical
Settings: pNPP or FDP as substrate, 25° C.; read-out: PTP IC50 Beta

Here is how some compounds turned out for IC50.
q: What value of IC50 has been reported for the following compound? "O=S(=O)(Nc1ccc(-c2nnc(-c3ccc(NS(=O)(=O)C(F)(F)F)cc3)o2)cc1)C(F)(F)F"
a: 2.9 µM

q: "O=C(O)Cc1ccc(CC(=O)Nc2cccc(S(=O)(=O)C(F)(F)F)c2)cc1" ?
a: 6.4 µM

q: Item: "COC(=O)c1cc(Oc2ccc(S(=O)(=O)C(F)(F)F)cc2[N+](=O)[O-])n(-c2cc(C(F)(F)F)cc(C(F)(F)F)c2)n1"
a: 9.6 µM

q: Also "O=C(c1ccccc1)N(Cc1ccc(S(=O)(=O)C(F)(F)F)cc1)Cc1ccc(S(=O)(=O)C(F)(F)F)cc1" ?
a: 17.2 µM

q: And "CC(C)(COc1ccc(NS(=O)(=O)C(F)(F)F)cc1)COc1ccc(NS(=O)(=O)C(F)(F)F)cc1" ?
a: 15.2 µM

***
q: Recorded IC50 for "O=S(=O)(Nc1ccc(CCc2ccc(NS(=O)(=O)C(F)(F)F)cc2)cc1)C(F)(F)F" , please?
a: 39.9 µM

q: Then this compound: "COC(=O)c1cc(Oc2ccc(S(=O)(=O)C(F)(F)F)cc2)cc(Oc2ccc(S(=O)(=O)C(F)(F)F)cc2)c1"
a: 45.6 µM

q: Would you kindly repeat that for "O=C(NCc1ccc(S(=O)(=O)C(F)(F)F)cc1)c1ccccc1" ?
a: > 100 µM
